Item-by-item account of geometric mean
SUBJECT_OF_TEST: T1, MUC1 on HCT116/MUC1 cells (UniProt P15941 24-1255, limits assumed)
T1 construct: whole, on cells; also called MUC1 overexpressed cell line
MEASUREMENT_DESCRIPTION: FACS titration, HCT116/MUC1 cells, antibody at 250 nM
PARAMETER_MEASURED: geometric mean

>  <BINDER>
VH2 + VL3 (antibody, V domains shown, Humanized IgG expressed in HEK293; also called humanized antibody VH2+VL3) VH: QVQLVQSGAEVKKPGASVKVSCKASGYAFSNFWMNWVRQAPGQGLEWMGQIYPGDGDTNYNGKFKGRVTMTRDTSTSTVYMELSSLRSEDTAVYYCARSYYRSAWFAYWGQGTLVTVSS VL: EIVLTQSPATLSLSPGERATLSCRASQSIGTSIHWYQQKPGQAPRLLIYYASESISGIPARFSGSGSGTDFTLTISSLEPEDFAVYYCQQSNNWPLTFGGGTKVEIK

>  <PARAMETER_MEASURED>
geometric mean

>  <TEST_VALUE>
167

$$$$
>  <BINDER>
VH3 + VL3 (antibody, V domains shown, Humanized IgG expressed in HEK293; also called humanized antibody VH3+VL3) VH: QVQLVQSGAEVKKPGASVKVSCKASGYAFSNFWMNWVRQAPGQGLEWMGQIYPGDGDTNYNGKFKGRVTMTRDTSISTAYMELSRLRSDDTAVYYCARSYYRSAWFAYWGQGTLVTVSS VL: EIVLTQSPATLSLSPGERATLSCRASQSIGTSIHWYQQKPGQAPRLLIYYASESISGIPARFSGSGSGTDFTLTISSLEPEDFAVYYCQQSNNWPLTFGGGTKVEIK

>  <PARAMETER_MEASURED>
geometric mean

>  <TEST_VALUE>
154

$$$$
>  <BINDER>
VH3 + VL4 (antibody, V domains shown, Humanized IgG expressed in HEK293; also called humanized antibody VH3+VL4) VH: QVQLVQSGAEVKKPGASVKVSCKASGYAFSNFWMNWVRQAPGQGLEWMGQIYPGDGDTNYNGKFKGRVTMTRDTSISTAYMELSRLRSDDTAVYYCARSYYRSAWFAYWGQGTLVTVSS VL: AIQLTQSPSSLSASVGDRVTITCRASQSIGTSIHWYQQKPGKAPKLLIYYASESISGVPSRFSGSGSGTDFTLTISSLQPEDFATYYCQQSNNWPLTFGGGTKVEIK

>  <PARAMETER_MEASURED>
geometric mean

>  <TEST_VALUE>
227

$$$$
>  <BINDER>
VH3 + VL1 (antibody, V domains shown, Humanized IgG expressed in HEK293; also called humanized antibody VH3+VL1) VH: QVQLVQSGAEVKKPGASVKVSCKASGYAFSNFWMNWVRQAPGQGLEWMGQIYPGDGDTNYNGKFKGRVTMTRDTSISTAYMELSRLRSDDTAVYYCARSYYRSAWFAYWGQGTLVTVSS VL: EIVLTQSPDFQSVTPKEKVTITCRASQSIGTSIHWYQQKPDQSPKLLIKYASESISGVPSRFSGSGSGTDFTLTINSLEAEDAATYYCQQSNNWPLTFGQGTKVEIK

>  <PARAMETER_MEASURED>
geometric mean

>  <TEST_VALUE>
321

$$$$
>  <BINDER>
VH5 + VL4 (antibody, V domains shown, Humanized IgG expressed in HEK293; also called humanized antibody VH5+VL4) VH: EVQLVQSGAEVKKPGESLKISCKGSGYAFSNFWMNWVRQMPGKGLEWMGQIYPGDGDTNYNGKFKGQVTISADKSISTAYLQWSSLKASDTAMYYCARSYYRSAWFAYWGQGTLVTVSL VL: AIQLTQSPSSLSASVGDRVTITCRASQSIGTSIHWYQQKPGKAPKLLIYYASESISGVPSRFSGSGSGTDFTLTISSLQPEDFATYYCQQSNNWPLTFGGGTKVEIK

>  <PARAMETER_MEASURED>
geometric mean

>  <TEST_VALUE>
193

$$$$
>  <BINDER>
VH5 + VL1 (antibody, V domains shown, Humanized IgG expressed in HEK293; also called humanized antibody VH5+VL1) VH: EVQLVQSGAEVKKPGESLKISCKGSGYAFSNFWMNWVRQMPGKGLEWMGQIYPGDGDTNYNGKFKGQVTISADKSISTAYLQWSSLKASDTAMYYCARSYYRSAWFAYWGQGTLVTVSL VL: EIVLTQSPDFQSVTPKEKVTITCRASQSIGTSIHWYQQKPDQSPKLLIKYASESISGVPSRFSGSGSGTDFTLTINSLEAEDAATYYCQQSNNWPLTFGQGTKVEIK

>  <PARAMETER_MEASURED>
geometric mean

>  <TEST_VALUE>
327

$$$$
>  <BINDER>
VH4 + VL1 (antibody, V domains shown, Humanized IgG expressed in HEK293; also called humanized antibody VH4+VL1) VH: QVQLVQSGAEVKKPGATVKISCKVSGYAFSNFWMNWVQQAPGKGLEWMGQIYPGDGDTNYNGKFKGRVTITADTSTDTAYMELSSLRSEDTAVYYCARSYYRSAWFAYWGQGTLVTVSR VL: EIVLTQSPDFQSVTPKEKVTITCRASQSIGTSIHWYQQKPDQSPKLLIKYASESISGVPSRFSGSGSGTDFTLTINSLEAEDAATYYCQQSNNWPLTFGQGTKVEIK

>  <PARAMETER_MEASURED>
geometric mean

>  <TEST_VALUE>
250

$$$$
